# Histamine H3 receptor (Homo sapiens): AC50 values follow; further: assay procedure not described here
# Sequence (Q9Y5N1 whole entry): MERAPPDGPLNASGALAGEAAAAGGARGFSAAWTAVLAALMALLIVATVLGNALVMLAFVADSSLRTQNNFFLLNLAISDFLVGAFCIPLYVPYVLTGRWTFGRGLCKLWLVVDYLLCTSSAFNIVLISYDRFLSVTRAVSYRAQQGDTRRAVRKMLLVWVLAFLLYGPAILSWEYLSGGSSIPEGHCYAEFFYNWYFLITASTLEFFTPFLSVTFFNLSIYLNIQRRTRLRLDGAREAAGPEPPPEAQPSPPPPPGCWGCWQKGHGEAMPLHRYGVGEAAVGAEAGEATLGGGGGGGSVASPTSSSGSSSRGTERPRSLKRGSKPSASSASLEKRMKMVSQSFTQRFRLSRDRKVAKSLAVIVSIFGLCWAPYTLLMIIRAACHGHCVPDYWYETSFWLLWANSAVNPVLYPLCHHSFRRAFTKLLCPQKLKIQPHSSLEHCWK

Example results:
compound	quantity name	measurement
Cc1nc2ccc(CN(C)c3ccc(C(=O)N[C@@H](CCC(=O)O)C(=O)O)s3)cc2c(=O)[nH]1 [RALTITREXED]	AC50	> 30 µM
Cc1c(C(=O)Nc2ccc(N3C[C@@H](C)O[C@@H](C)C3)nc2)cccc1-c1ccc(OC(F)(F)F)cc1 [SONIDEGIB]	AC50	> 10 µM
CCOC(=O)[C@H](CCc1ccccc1)N[C@H]1CCCN2CCC[C@@H](C(=O)O)N2C1=O [CILAZAPRIL]	AC50	> 30 µM
Nc1nc(N)c2nc(-c3ccccc3)c(N)nc2n1	AC50	> 30 µM
CC(C)(Oc1ccc(C2CC2(Cl)Cl)cc1)C(=O)O (stereo not given) [CIPROFIBRATE]	AC50	> 30 µM
COc1ccc(C(=O)N2CCN(c3ccc4c(c3)CCC(=O)N4)CC2)cc1OC [VESNARINONE]	AC50	> 30 µM
CN1CCN(C(=O)OC2c3nccnc3C(=O)N2c2ccc(Cl)cn2)CC1 (stereo not given) [ZOPICLONE]	AC50	> 30 µM
CC(N)Cc1ccccc1 (stereo not given) [AMPHETAMINE]	AC50	> 30 µM
CC(C)NCC(O)COc1ccc(COCCOC(C)C)cc1 (stereo not given) [BISOPROLOL]	AC50	> 10 µM
NC(=O)c1cnccn1 [PYRAZINAMIDE]	AC50	> 30 µM

Exercise: GET /values?readout=AC50&item= C#CC1(OC(N)=O)CCCCC1 [ETHINAMATE]
Solution: > 10 µM

Exercise: GET /values?readout=AC50&item= O=C(Nc1ccccc1)OCC(CN1CCCCC1)OC(=O)Nc1ccccc1 (stereo not given) [DIPERODON]
Solution: > 10 µM

Exercise: GET /values?readout=AC50&item= CN1C(=O)COc2c(C(=O)NC3CN4CCC3CC4)cc(Cl)cc21 (stereo not given) [AZASETRON]
Solution: > 30 µM

###

# Kappa-type opioid receptor (Homo sapiens, UniProt P41145): AC50 values follow; further: assay procedure not described here
# Sequence (P41145 whole entry): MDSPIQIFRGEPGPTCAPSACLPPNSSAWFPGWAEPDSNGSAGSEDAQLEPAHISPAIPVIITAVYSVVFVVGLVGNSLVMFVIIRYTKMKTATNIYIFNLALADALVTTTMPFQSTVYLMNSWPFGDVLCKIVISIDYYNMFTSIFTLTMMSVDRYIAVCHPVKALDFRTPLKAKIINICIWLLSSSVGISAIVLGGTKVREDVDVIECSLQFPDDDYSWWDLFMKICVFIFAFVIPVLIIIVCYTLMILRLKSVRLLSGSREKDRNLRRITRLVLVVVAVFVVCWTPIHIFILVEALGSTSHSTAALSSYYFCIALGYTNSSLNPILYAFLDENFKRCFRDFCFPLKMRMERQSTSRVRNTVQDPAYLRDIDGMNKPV

Example results:
compound	AC50
O=P(O)(O)C(O)(Cc1cccnc1)P(=O)(O)O	> 30 µM
COc1ccc(C(=O)N2CCN(c3ccc4c(c3)CCC(=O)N4)CC2)cc1OC	> 30 µM
CC[C@]1(O)C[C@@H]2CN(CCc3c([nH]c4ccccc34)[C@@](C(=O)OC)(c3cc4c(cc3OC)N(C)[C@H]3[C@@](O)(C(N)=O)[C@H](O)[C@]5(CC)C=CCN6CC[C@]43[C@@H]65)C2)C1	> 30 µM

Exercise: GET /values?readout=AC50&item= CN[C@@H](C)[C@H](O)c1ccccc1
Solution: > 10 µM

Exercise: GET /values?readout=AC50&item= CCCCC(C)(O)C/C=C/[C@H]1[C@H](O)CC(=O)[C@@H]1CCCCCCC(=O)OC (some centres not stated)
Solution: > 30 µM

###

Below, each entry is listed with its recorded AC50.
molecular target: Muscarinic acetylcholine receptor M3 (Homo sapiens, UniProt P20309); further: assay procedure not described here
Sequence (P20309 whole entry): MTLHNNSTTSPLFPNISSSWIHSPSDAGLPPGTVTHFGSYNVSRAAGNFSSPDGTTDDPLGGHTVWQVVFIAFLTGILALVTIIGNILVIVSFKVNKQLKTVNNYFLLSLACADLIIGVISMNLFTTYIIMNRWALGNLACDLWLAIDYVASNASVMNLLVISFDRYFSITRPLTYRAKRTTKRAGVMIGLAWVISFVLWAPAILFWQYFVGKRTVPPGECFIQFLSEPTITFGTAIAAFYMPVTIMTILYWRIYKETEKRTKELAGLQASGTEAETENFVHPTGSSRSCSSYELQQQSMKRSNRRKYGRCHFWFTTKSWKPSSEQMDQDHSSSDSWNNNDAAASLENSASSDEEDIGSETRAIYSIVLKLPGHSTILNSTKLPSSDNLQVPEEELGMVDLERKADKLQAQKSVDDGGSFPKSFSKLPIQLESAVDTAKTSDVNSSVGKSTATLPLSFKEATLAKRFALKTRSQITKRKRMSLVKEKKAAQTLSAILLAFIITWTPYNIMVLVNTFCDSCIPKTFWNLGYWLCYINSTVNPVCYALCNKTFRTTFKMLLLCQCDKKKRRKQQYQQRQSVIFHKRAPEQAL

Example results:
> print(dat)
                                   compound  quantity.name  measurement
1  COc1ccc2c(c1)C(=O)N(CCc1ccc(S(=O)(=O)NC(=O)NC3CCCCC3)cc1)C(=O)C2(C)C           AC50      > 30 µM
2  CC(C)NCC1CCc2cc(CO)c([N+](=O)[O-])cc2N1 (centres undefined)           AC50      > 30 µM
3  CN(C)C(=O)OC1N=C(c2ccccc2)c2cc(Cl)ccc2N(C)C1=O (centres undefined)           AC50      > 10 µM

Exercise: Give AC50 (Muscarinic acetylcholine receptor M3 (Homo sapiens, UniProt P20309)) of the following compound: CC(Cc1ccccc1)NCCC(c1ccccc1)c1ccccc1 (centres undefined)
Solution: > 10 µM

###

target: Muscarinic acetylcholine receptor M3 (Homo sapiens); further: assay procedure not described here
quantity name: AC50

> print(dat)
                                    compound                             target.entity  measurement
 1  CCOc1cc(N)c([N+](=O)[O-])cc1C(=O)NC1CCN(CC2CC=CCC2)CC1 (stereo not drawn) [CINITAPRIDE]  Muscarinic acetylcholine receptor M3 (Homo sapiens)        13 µM
 2  N[C@@H](C(=O)N[C@@H]1C(=O)N2C(C(=O)O)=C(Cl)CS[C@H]12)c1ccccc1 [CEFACLOR ANHYDROUS]  Muscarinic acetylcholine receptor M3 (Homo sapiens)      > 30 µM
 3    CN1C(=O)CC(=O)N(c2ccccc2)c2cc(Cl)ccc21  Muscarinic acetylcholine receptor M3 (Homo sapiens)      > 30 µM
 4               COc1ccc2cccc(CCNC(C)=O)c2c1  Muscarinic acetylcholine receptor M3 (Homo sapiens)      > 10 µM
 5               O=C(CCCCCCC(=O)Nc1ccccc1)NO  Muscarinic acetylcholine receptor M3 (Homo sapiens)      > 30 µM
 6  Cc1ccc(C(=O)c2cc(O)c(O)c([N+](=O)[O-])c2)cc1  Muscarinic acetylcholine receptor M3 (Homo sapiens)      > 30 µM
 7  COc1ccc(C(=O)N2CCN(c3ccc4c(c3)CCC(=O)N4)CC2)cc1OC  Muscarinic acetylcholine receptor M3 (Homo sapiens)      > 30 µM
 8  O=C1CN=C(c2ccccc2)c2cc(Cl)ccc2N1CC(F)(F)F  Muscarinic acetylcholine receptor M3 (Homo sapiens)      > 30 µM
 9  O=C(C[S+]([O-])C(c1ccccc1)c1ccccc1)NO (stereo not drawn)  Muscarinic acetylcholine receptor M3 (Homo sapiens)      > 30 µM
10                 C[C@@H]1O[C@@H]1P(=O)(O)O  Muscarinic acetylcholine receptor M3 (Homo sapiens)      > 30 µM

Exercise: Give AC50 (Muscarinic acetylcholine receptor M3 (Homo sapiens)) of the following compound: CN1CCc2cccc3c2[C@H]1Cc1ccc(O)c(O)c1-3
Solution: > 30 µM

Exercise: Give AC50 (Muscarinic acetylcholine receptor M3 (Homo sapiens)) of the following compound: NS(=O)(=O)c1cc(Cl)c(Cl)c(S(N)(=O)=O)c1 [DICHLORPHENAMIDE]
Solution: > 30 µM

Exercise: Give AC50 (Muscarinic acetylcholine receptor M3 (Homo sapiens)) of the following compound: CCCCCCC(C)(C)c1cc(O)c2c(c1)OC(C)(C)C1CCC(=O)CC21 (stereo not drawn)
Solution: > 30 µM

###

target: Amine oxidase [flavin-containing] A (Homo sapiens); type: functional; further: assay procedure not described here
Sequence (P21397 whole entry): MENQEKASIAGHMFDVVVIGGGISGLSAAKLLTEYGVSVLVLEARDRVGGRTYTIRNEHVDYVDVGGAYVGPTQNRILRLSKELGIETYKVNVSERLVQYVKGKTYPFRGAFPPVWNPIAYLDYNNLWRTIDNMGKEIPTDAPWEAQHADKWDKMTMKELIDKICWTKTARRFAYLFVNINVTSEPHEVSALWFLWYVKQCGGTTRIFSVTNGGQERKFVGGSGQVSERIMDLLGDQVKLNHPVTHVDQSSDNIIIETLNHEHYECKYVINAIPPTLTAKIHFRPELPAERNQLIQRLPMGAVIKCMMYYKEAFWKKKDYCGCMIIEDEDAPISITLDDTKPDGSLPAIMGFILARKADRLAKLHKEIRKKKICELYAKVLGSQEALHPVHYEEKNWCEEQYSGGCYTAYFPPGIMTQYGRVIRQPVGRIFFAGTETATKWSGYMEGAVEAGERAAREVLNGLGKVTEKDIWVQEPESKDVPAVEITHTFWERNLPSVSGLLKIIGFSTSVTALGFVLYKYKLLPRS
quantity name: AC50

Example results:
> print(dat)
                                   molecule  quantity.name  measurement
1           Cc1c(O)c(=O)ccn1C [DEFERIPRONE]           AC50      > 30 µM
2  CCc1ccc(CCOc2ccc(CC3SC(=O)NC3=O)cc2)nc1 (stereo not drawn) [PIOGLITAZONE]           AC50      > 10 µM
3  O=C1CCC(N2C(=O)c3ccccc3C2=O)C(=O)N1 (stereo not drawn) [THALIDOMIDE]           AC50      > 10 µM

Exercise: GET /values?readout=AC50&item= C[N+](C)(C)CC(=O)O [BETAINE]
Solution: > 30 µM

Exercise: GET /values?readout=AC50&item= Nc1ncnc2c1ncn2[C@@H]1O[C@H](COP(=O)(O)O)[C@@H](O)[C@H]1O [ADENOSINE PHOSPHATE]
Solution: > 30 µM

Exercise: GET /values?readout=AC50&item= O=P(O)(O)C(O)(Cc1cccnc1)P(=O)(O)O [RISEDRONIC ACID]
Solution: > 30 µM

Exercise: GET /values?readout=AC50&item= CC(C)(C(=O)c1cccnc1)c1cccnc1 [METYRAPONE]
Solution: > 10 µM

Exercise: GET /values?readout=AC50&item= CCN1CCC[C@H]1CNC(=O)c1cc(S(N)(=O)=O)ccc1OC [LEVOSULPIRIDE]
Solution: > 10 µM

###

# Melanocortin receptor 4 (Homo sapiens, UniProt P32245): AC50 values follow; further: assay procedure not described here
# Sequence (P32245 whole entry): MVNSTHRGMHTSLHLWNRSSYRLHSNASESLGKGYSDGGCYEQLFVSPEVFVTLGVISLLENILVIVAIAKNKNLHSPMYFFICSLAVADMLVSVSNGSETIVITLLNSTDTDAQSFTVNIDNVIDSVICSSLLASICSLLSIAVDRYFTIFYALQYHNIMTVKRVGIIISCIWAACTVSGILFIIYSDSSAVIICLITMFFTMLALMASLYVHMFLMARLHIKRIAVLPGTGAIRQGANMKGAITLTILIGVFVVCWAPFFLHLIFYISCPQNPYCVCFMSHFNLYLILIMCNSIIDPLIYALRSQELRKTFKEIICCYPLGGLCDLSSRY

Example results:
compound	target entity	AC50
C[N+](C)(C)CCOC(N)=O [CARBAMOYLCHOLINE]	Melanocortin receptor 4 (Homo sapiens, UniProt P32245)	> 10 µM
CCCCOc1cc(C(=O)NCCN(CC)CC)c2ccccc2n1 [DIBUCAINE]	Melanocortin receptor 4 (Homo sapiens, UniProt P32245)	> 30 µM
O=C(O)CCCc1ccccc1 [PHENYLBUTANOIC ACID]	Melanocortin receptor 4 (Homo sapiens, UniProt P32245)	> 10 µM

Exercise: Give AC50 (Melanocortin receptor 4 (Homo sapiens, UniProt P32245)) of the following compound: CCN(CC)CCNC(=O)c1cc(Cl)c(N)cc1OC [METOCLOPRAMIDE]
Solution: > 30 µM

Exercise: Give AC50 (Melanocortin receptor 4 (Homo sapiens, UniProt P32245)) of the following compound: COc1ccccc1OCC(O)COC(N)=O (stereo unspecified) [METHOCARBAMOL]
Solution: > 10 µM

Exercise: Give AC50 (Melanocortin receptor 4 (Homo sapiens, UniProt P32245)) of the following compound: CN1CCN(C(=O)OC2c3nccnc3C(=O)N2c2ccc(Cl)cn2)CC1 (stereo unspecified) [ZOPICLONE]
Solution: > 30 µM

Exercise: Give AC50 (Melanocortin receptor 4 (Homo sapiens, UniProt P32245)) of the following compound: CC(C)[N+](C)(CCC(C(N)=O)(c1ccccc1)c1ccccc1)C(C)C [ISOPROPAMIDE]
Solution: > 10 µM

Exercise: Give AC50 (Melanocortin receptor 4 (Homo sapiens, UniProt P32245)) of the following compound: Oc1ncnc2[nH]ncc12 [ALLOPURINOL]
Solution: > 30 µM

Exercise: Give AC50 (Melanocortin receptor 4 (Homo sapiens, UniProt P32245)) of the following compound: C#CCN[C@@H]1CCc2ccccc21 [RASAGILINE]
Solution: > 30 µM

Where do the numbers come from? From ChEMBL document CHEMBL5291721.
